Tested on: CAKI-1
Experiment: NCI tumour cell line growth inhibition, 48 h
Active and inactive are the calls of the source. Cut-off read from the data, not from the text of the source: active = GI50 up to about 1.1 µM and inactive = higher.
The reply should name one outcome from active, inactive

Examples with answers:
[
  {
    "MOLECULE": "CCCCCNc1nonc1N",
    "TARGET_OR_SYSTEM": "CAKI-1",
    "LABEL": "inactive"
  },
  {
    "MOLECULE": "CC(=O)O[C@H]1CC[C@@]2(C)C(=CC[C@@H]3C2CC[C@]2(C)Nc4oncc4CC32)C1 (some centres not stated)",
    "TARGET_OR_SYSTEM": "CAKI-1",
    "LABEL": "inactive"
  },
  {
    "MOLECULE": "N#Cc1nnc2ccccc2c1N",
    "TARGET_OR_SYSTEM": "CAKI-1",
    "LABEL": "inactive"
  }
]

Hello, I am checking results. What call was entered for NC(=O)NC(=O)c1cnccn1 ?
inactive

Outcome logged for CCc1c(CNc2ccc(C(=O)NC(CC(=O)O)C(=O)O)cc2)ccc2nc(N)nc(N)c12 (configuration not stated) in this assay:
active

For this molecule, state the assay outcome: CCOC(=O)C1C(c2ccco2)C2(C#N)C(=N)OC1(C)C2(C#N)C#N (configuration not stated)
inactive
